# System: pSTAT5 in CTLL-2 cells (JAK1 and JAK3 dependent)
# assay_notes: Cell pSTAT5 AlphaScreen SureFire assay
# Format: cell-based
# settings: Mus musculus, CTLL-2; 1 hour, IL2-stimulated, JAK1 and JAK3 dependent
measurement_name: IC50 (nM)
Enter your answer as a number in nM; do not include the unit.

Asked: State its IC50: NC(=O)c1cnc(N[C@H](C2CC2)C(F)(F)F)c2c1[nH]c1cc(-c3cnc(N)nc3)ccc12
Given back: 66

----------
# Test system: pSTAT5 in BaF3 (JAK2 WT) cells
# assay_notes: Cell pSTAT5 AlphaScreen SureFire assay
# Type: cell-based
# settings: Mus musculus, 1 hour, EPO-stimulated
# Procedure: Measurement of pSTAT5 in cells was performed essentially as described previously using an AlphaScreen™ SureFire™ (Perkin Elmer) assay. BaF3 (JAK2 WT), BaF3 (JAK2 V617F), and CTLL-2 cells were exposed to compound for 60 min prior to lysis and subsequent detection of pSTAT5 via AlphaScreen technology. Prior to compound treatment, BaF3 (JAK2 WT) and CTLL-2 cells were cytokine starved overnight, with EPO or IL-2 added 15 minutes prior to lysis, respectively.
measurement_name: pIC50
The read-out pIC50 is expressed as -log10 of concentration in moles per litre.

Asked: State its pIC50: NC(=O)c1cnc(N[C@H](C2CC2)C(F)(F)F)c2c1[nH]c1cc(-c3cnc(N)nc3)ccc12
Given back: 7.64
